# activation per entry
Test name: FXN promoter activators, primary screen, cell-based, luciferase luminescence, HEK293 lucGAA850 (AID 540364);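 note: 0% = DMSO wells and 100% = 10 µM SAHA wells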
Test conditions: HEK293 lucGAA850 FXN promoter luciferase reporter, 24 h; at 6 µM; stronger effect = higher value; percent of 10 µM SAHA response
About 2,000 (0.56%) of roughly 360,000 compounds were called active. Shown is part of a subset that was picked to be rich in actives.
Reply numerically in %, unit not repeated.

Query: Using the record for COC(=O)c1ccc(NC(=O)CSc2nc(N)c(NC(=O)c3ccc(Br)o3)c(=O)[nH]2)cc1 , state its measured activation.
Result: 1.31

Query: Supply reported activation belonging to this molecule: COc1ccc(Br)cc1S(=O)(=O)N1CCN=C1C
Result: 2.93

Query: Answer with reported activation of CCCCN(CC(=O)NC(C)(C)C)C(=O)C(=O)Nc1ccc2c(c1)OCCO2
Result: 0.41

Query: Please look at this molecule and report its activation: CC1CN(Cc2ccco2)C(=S)N(c2ccccc2)C1=O (stereo unspecified)
Result: 2.7

Query: Output activation of O=C1N=C(N2CCCC2)S/C1=C\c1cccc(Br)c1
Result: 8.18

Query: Let me know recorded activation for CC(C)N1C(=S)SC(C)(C)C1n1oc(=O)n(-c2ccc(Cl)c(Cl)c2)c1=O (stereo unspecified) , thanks.
Result: -0.29

Query: Give me measured activation, please, for this molecule: COCc1cc(C)nc(Nc2cc(C)ccc2C)c1C#N
Result: -0.89

Query: Provide one value: measured activation of Cc1nc(-c2ccc(F)cc2)c(CC(=O)Nc2cccc(S(=O)(=O)N3CCOCC3)c2)s1
Result: -0.93

Query: Please supply the value of reported activation for the item CN(C(=O)c1cc2c(=O)n3ccccc3nc2s1)C1CCCCC1
Result: 8.38

Query: Give activation for CCOC(=O)c1ccc(N=C2SC(C(=O)NC)CC(=O)N2CCc2ccccc2)cc1 (stereo unspecified)
Result: 0.94

Query: Specify activation for C=CCn1c(SCc2ccccc2)nc2c1c(=O)[nH]c(=O)n2C and stop.
Result: 4.04

* * *

Test name: FXN promoter activators, primary screen, cell-based, luciferase luminescence, HEK293 lucGAA850 (AID 540364);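 note: 0% = DMSO wells and 100% = 10 µM SAHA wells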
Test conditions: HEK293 lucGAA850 FXN promoter luciferase reporter, 24 h; at 6 µM; percent of 10 µM SAHA response
The whole screen tested about 360,000 compounds, of which about 2,000 (0.56%) were called active.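 The calls were made as follows: active = activation above the average of all compounds screened plus 3 SD, cutoff fixed separately per campaign (cut at about 7.5% in these data); inactive = the rest.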 What follows is part of a selection rich in actives, with near analogues and random picks from the rest.
Select the matching outcome among active, inactive

For orientation, consider the following solved cases.
> print(dat)
                                   compound     class
1  Cc1ccc2cc(/C=N/Nc3ccc(C(=O)O)cc3)c(Cl)nc2c1    active
2  COc1ccc(-c2cc(C(=O)NCCCN3CCCC3=O)c3ccccc3n2)cc1OC  inactive
3  COc1ccccc1CNC(=O)C1Cc2ccccc2C(=O)O1 (stereo unspecified)  inactive

Query: Hi team, can someone confirm the assay call for COc1ccc(CNC(=O)c2c(C)cc(=O)oc2C)cc1OC ?
Result: inactive

Query: Recorded test call requested for C/C(Cc1ccccc1)=N\NC(=O)CNC(=O)c1ccc2c(c1)OCCO2
Result: inactive

Query: So what was the verdict on Cc1cc(=O)oc(C)c1C(=O)NCCN(C)Cc1ccccc1 in this test?
Result: inactive

* * *

Test name: FXN promoter activators, primary screen, cell-based, luciferase luminescence, HEK293 lucGAA850 (AID 540364);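 note: 0% = DMSO wells and 100% = 10 µM SAHA wells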
Test conditions: HEK293 lucGAA850 FXN promoter luciferase reporter, 24 h; at 6 µM; stronger effect = higher value; percent of 10 µM SAHA response
About 2,000 (0.56%) of roughly 360,000 compounds were called active. The sample as a whole holds a higher share of actives than the screen did.
Reported activation values follow for various compounds

> print(dat)
                                   compound  test.readout              value
1  O=C(/C=C/c1cc2c(cc1Br)OCO2)NCc1ccc(Cl)cc1    activation   1.84% (inactive)
2         Cc1ccc(O/C=C2\OC(=O)c3ccccc32)cc1    activation  -0.57% (inactive)
3  COc1ccc(C(CNC(=O)c2cc3c(s2)CCCC3)N2CCOCC2)cc1 (stereo not drawn)    activation   1.32% (inactive)
4   Cc1ccc(-n2nc(N)c3c(=O)oc(N(C)C)nc32)cc1    activation  -0.82% (inactive)
5  Cc1c(Br)c([N+](=O)[O-])nn1C(C)C(=O)Nc1nccs1 (stereo not drawn)    activation   1.64% (inactive)

Query: Provide measured activation value, entry: O=C(CN1C(=O)NC2(CCCC2)C1=O)NCC1CCCO1 (stereo not drawn)
Result: 0.59% (inactive)

Query: Let me know recorded activation for Cc1noc(C)c1-c1ccc(C(=O)NCc2ccncc2)c2occc12 , thanks.
Result: 3.59% (inactive)

Query: State, in one line, measured activation of CC(=O)N1c2ccc(S(=O)(=O)N3CCC(C(=O)NC4CCCC(C)C4C)CC3)cc2CC1C (stereo not drawn)
Result: 1.08% (inactive)

Query: Specify activation for CC1(C(=O)N/N=C/c2cc3c(cc2Br)OCO3)CC1(Br)Br (stereo not drawn) and stop.
Result: 8.27% (active)

Query: Provide only the value of recorded activation for Cc1ccccc1N1CC(c2nc3ccccc3[nH]2)CC1=O (stereo not drawn)
Result: -3.78% (inactive)

Query: Please report activation for the following compound: COc1cc(S(=O)(=O)N2CCN=C2c2ccccc2)ccc1Cl
Result: 2.5% (inactive)

Query: Could you please provide reported activation for CCCC1NC(=O)NC(C)=C1C(=O)OCC (stereo not drawn) ? Thanks!
Result: 0.3% (inactive)

Query: Note activation for the compound shown: Cc1nc(SCc2ccc(F)cc2)c([N+](=O)[O-])[nH]1
Result: 0.83% (inactive)

Query: Dear colleague, please send me the reported activation for CCCCCOc1ccc(CSC2=NCCN2)cc1[N+](=O)[O-] when you can.
Result: 8.36% (active)

Query: Find the measured activation of NC(c1csc(NC(=O)Nc2cccc(C(F)(F)F)c2)n1)C1CCCCC1 (stereo not drawn) and report it.
Result: 0.57% (inactive)

Query: Look up and report measured activation for this entry: O=C(O)c1ccccc1-c1cccc2nncn12
Result: 0.6% (inactive)

Query: Look up and state reported activation for O=[N+]([O-])c1ccccc1OCCCCN1CCCCC1
Result: 1.12% (inactive)

Query: Quick one: give measured activation for CCc1nnc(NC(=O)CSc2nnnn2-c2cccc(C(C)=O)c2)s1
Result: 0.27% (inactive)

Query: // fetch activation given entry O=C(NCc1ccccc1)C(c1cccnc1)N(C(=O)c1csnn1)c1ccc(F)cc1 (stereo not drawn)
Result: -0.33% (inactive)

Query: Note down activation recorded for Cc1cnc(C(=O)OCc2c(C)cc(C(C)(C)C)cc2C)cn1
Result: 1.56% (inactive)

Query: Return the recorded activation value; entry: COc1ccc(OC)c(NC(=O)c2cnn(-c3ccccc3Cl)c2NC(=O)c2ccco2)c1
Result: 2.28% (inactive)

Query: Answer with the recorded activation for the compound listed here: COc1ccc(CN2[C@@H](CC(=O)O)c3cc(F)ccc3S2(=O)=O)cc1
Result: 1.09% (inactive)

Query: Return the recorded activation value; entry: CC1CCc2c(sc3nc4n(c(=O)c23)CCS4)C1 (stereo not drawn)
Result: 3.94% (inactive)

* * *

Test name: FXN promoter activators, primary screen, cell-based, luciferase luminescence, HEK293 lucGAA850 (AID 540364);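 note: 0% = DMSO wells and 100% = 10 µM SAHA wells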
Test conditions: HEK293 lucGAA850 FXN promoter luciferase reporter, 24 h; at 6 µM; percent of 10 µM SAHA response
Out of some 360,000 compounds screened, about 2,000 (0.56%) were called active.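 How the source made its calls: active means activation above the average of all compounds screened plus 3 SD, cutoff fixed separately per campaign (cut at about 7.5% in these data); inactive means the rest.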 Many of the other results were omitted from the sample, so actives are more common in it than they were.
Pick one and only one: active, inactive

Known results for compounds:
> print(dat)
                               smiles.entry     class
1       COc1ccc(NC(=O)CSc2nc(SC)ns2)c(OC)c1    active
2  COc1cccc(-c2ccc(C#N)c(SCC(=O)NCCc3ccc(Cl)cc3)n2)c1  inactive
3      CSc1nsc(SCC(=O)Nc2cc(C(=O)O)ccc2C)n1  inactive
4  Cc1cc(C)n2nc(CNS(=O)(=O)c3c(F)c(F)c(F)c(F)c3F)nc2n1    active
5               Cc1cc(C)n2nc(SCC(N)=O)nc2n1  inactive

Would you kindly look at the next entry?
Query: For Cc1cc(C)n2nc(C(=O)NC(C)(C)C)nc2n1 , what call appears in the results of this test?
Result: inactive

* * *

Test name: FXN promoter activators, primary screen, cell-based, luciferase luminescence, HEK293 lucGAA850 (AID 540364);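 note: 0% = DMSO wells and 100% = 10 µM SAHA wells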
Test conditions: HEK293 lucGAA850 FXN promoter luciferase reporter, 24 h; at 6 µM; stronger effect = higher value; percent of 10 µM SAHA response
Out of some 360,000 compounds screened, about 2,000 (0.56%) were called active. Only a selection was taken, and actives are over-represented in it overall.
Parameter: activation. Scope: all listed entries.
Give a bare numeral; the unit % is implied.

> print(dat)
                                   molecule  test.readout  unit.of.measure  value
1          COc1cc(/C=N/Nc2nc3ccccc3s2)ccc1O    activation                %   8.92
2  CCOc1cc(/C=N/Nc2cc(C)nc3ccc(C)cc23)ccc1O    activation                %  -0.68
3                  COc1cc(C=NC2CCCCC2)ccc1O    activation                %  -0.66
4  CCOc1ccc(CCNC(=O)C2CCN(c3ccc(N4CCOCC4)nn3)CC2)cc1OCC    activation                %   2.52
5  Cc1ccc(S(=O)(=O)N(CC(=O)N/N=C/c2ccc(F)cc2)c2cccc3cccnc23)cc1    activation                %   -4.8

Query: Return activation for the following molecule: CCCNC(=O)C1(C)CCCN(Cc2c(C)nn(-c3ccccc3)c2C)C1 (stereo not given)
Result: 0.72

Query: In one line, give reported activation of the entry CCOC(=O)c1cc2c(=O)n3ccccc3nc2n(CC(C)C)c1=NC(=O)c1c(-c2c(F)cccc2Cl)noc1C .
Result: 8.16

Query: Quick one: give measured activation for CN(C)c1ccc(NC(=S)N(CCc2ccccc2)C2CC(=O)N(c3c(Cl)cccc3Cl)C2=O)cc1 (stereo not given)
Result: 0.24

Query: Report activation for CCc1ccc(N(CC(=O)NCc2cccnc2)S(=O)(=O)c2ccccc2)cc1
Result: -0.07

Query: Report measured activation; entry is COC(=O)CSc1snnc1-c1ccc(Cl)c(Cl)c1
Result: 2.88

Query: Give recorded activation. Fc1ccccc1/C=N/Nc1cc(N2CCCCC2)ncn1
Result: 8.75

Query: Give reported activation value for O=C(CSc1cccc2cccnc12)N/N=C/c1cccnc1
Result: 15.3

Query: Return value of activation for input C=C1c2c(Cl)ccc(O)c2C(O)=C2C(=O)[C@]3(O)C(O)=C(C(N)=O)C(=O)[C@@H](N(C)C)[C@@H]3[C@@H](O)C12 (stereo not given in full) , no commentary.
Result: 13.5
